The reader will find reported glycan array binding signal (z-score) values listed item by item below.
# EXPERIMENTAL SYSTEM: Gal(b1-4)GlcNAc(b1-3)Gal(b1-4)GlcNAc(b1-3)Gal(b1-4)GlcNAc(b1-3)Gal(b1-4)GlcNAc(b1-2)Man(a1-3)[Gal(b1-4)GlcNAc(b1-3)Gal(b1-4)GlcNAc(b1-3)Gal(b1-4)GlcNAc(b1-3)Gal(b1-4)GlcNAc(b1-2)Man(a1-6)]Man(b1-4)GlcNAc(b1-4)[Fuc(a1-6)]GlcNAc
# ASSAY TEXT: glycan array binding signal (z-score within array); higher = stronger binding
# CONDITION INFO: glycan notation: IUPAC condensed, linker removed
About 410 targets per protein were measured; listed, in parts, are those with the strongest signals and a random draw of the rest.
Give the figure by itself; no unit, no explanation.

Reference set, count: 2
{"BINDER": "Loc1 (Escherichia coli) (protein) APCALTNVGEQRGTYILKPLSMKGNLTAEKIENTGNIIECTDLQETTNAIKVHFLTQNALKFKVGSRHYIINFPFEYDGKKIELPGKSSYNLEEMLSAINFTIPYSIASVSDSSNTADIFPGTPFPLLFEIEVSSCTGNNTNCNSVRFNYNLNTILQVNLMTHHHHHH", "glycan array binding signal (z-score)": 2.43}
{"BINDER": "Pwp2 (Candida glabrata) (protein) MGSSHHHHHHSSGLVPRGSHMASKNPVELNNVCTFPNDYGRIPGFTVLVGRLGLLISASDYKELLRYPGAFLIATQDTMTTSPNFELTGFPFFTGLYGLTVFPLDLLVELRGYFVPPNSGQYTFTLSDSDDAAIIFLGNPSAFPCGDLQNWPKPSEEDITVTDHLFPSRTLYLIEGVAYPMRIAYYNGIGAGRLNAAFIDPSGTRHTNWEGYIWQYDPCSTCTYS", "glycan array binding signal (z-score)": 3.91}

Next, consider the following binder.
Tell me the measured glycan array binding signal (z-score) of AFL5 (Aspergillus fumigatus), Q4WB00 (protein) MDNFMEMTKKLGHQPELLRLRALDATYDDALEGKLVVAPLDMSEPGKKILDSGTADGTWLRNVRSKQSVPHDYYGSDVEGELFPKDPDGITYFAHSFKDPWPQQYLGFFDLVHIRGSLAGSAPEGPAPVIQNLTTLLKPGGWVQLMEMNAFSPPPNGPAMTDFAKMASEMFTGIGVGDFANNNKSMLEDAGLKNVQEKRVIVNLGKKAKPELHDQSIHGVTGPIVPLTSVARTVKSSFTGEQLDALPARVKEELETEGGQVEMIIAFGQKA , please. 1.69
